# Substrate: CC(O)CO
# procedure text: purified protein
# Format: biochemical, Paracoccus denitrificans
# condition description: 100 mM glycine-NaOH pH 10, 2.4 mM NAD+, 30 °C, oxidation
value type: kcat/Km (M⁻¹ s⁻¹)

protein | value type | reported value
EtgB (Paracoccus denitrificans PD1222; H47N) (protein, pET16b, His-tagged, E. coli BL21 AI, Ni-NTA purified; homotetramer; zinc-dependent medium-chain alcohol dehydrogenase) MAKTMKAAVVREFGKPLTIDEVPVPEPGPGMIQVRIQASGVCHTDLNAAEGDWPVKPNPPFIPGHEGVGFVSAVGAGVKHVKEGDRVGVPWLYTACGHCRHCLGGWETLCESQLNTGYSVNGGFADYVVADPNYVGHLPKNVDFLDIAPVLCAGVTVYKGLKVTDTKPGDWVVISGIGGLGHMAVQYAKAMGMNVAAVDIDDEKLALARKLGATVTVNAATEPDPAAAIRKQTDGGAQGVLVTAVGRKAFEQAIGMVARGGTVALNGLPPGDFPLDIFGMVLNGITVRGSIVGTRLDLQESLDFAGDGKVKATVHKAKLEDINNIFGQMHKGQIEGRMVLDMAG | kcat/Km | 197
EtgB, NAD-dependent alcohol dehydrogenase (Pden_2367) (enzyme, Paracoccus denitrificans DSM 413, The enzyme holds zinc ions; also called EtgB WT; alcohol dehydrogenase EtgB; source: E. coli BL21 AI, purified (Ni-NTA, desalting, size exclusion on Superdex 200 Increase)) MAKTMKAAVVREFGKPLTIDEVPVPEPGPGMIQVRIQASGVCHTDLHAAEGDWPVKPNPPFIPGHEGVGFVSAVGAGVKHVKEGDRVGVPWLYTACGHCRHCLGGWETLCESQLNTGYSVNGGFADYVVADPNYVGHLPKNVDFLDIAPVLCAGVTVYKGLKVTDTKPGDWVVISGIGGLGHMAVQYAKAMGMNVAAVDIDDEKLALARKLGATVTVNAATEPDPAAAIRKQTDGGAQGVLVTAVGRKAFEQAIGMVARGGTVALNGLPPGDFPLDIFGMVLNGITVRGSIVGTRLDLQESLDFAGDGKVKATVHKAKLEDINNIFGQMHKGQIEGRMVLDMAG | kcat/Km | 59.6
EtgB (Paracoccus denitrificans PD1222; T44S) (protein, pET16b, His-tagged, E. coli BL21 AI, Ni-NTA purified; homotetramer; zinc-dependent medium-chain alcohol dehydrogenase) MAKTMKAAVVREFGKPLTIDEVPVPEPGPGMIQVRIQASGVCHSDLHAAEGDWPVKPNPPFIPGHEGVGFVSAVGAGVKHVKEGDRVGVPWLYTACGHCRHCLGGWETLCESQLNTGYSVNGGFADYVVADPNYVGHLPKNVDFLDIAPVLCAGVTVYKGLKVTDTKPGDWVVISGIGGLGHMAVQYAKAMGMNVAAVDIDDEKLALARKLGATVTVNAATEPDPAAAIRKQTDGGAQGVLVTAVGRKAFEQAIGMVARGGTVALNGLPPGDFPLDIFGMVLNGITVRGSIVGTRLDLQESLDFAGDGKVKATVHKAKLEDINNIFGQMHKGQIEGRMVLDMAG | kcat/Km | 57.8
EtgB (Paracoccus denitrificans PD1222; H47N/T44S) (protein, pET16b, His-tagged, E. coli BL21 AI, Ni-NTA purified; homotetramer; zinc-dependent medium-chain alcohol dehydrogenase) MAKTMKAAVVREFGKPLTIDEVPVPEPGPGMIQVRIQASGVCHSDLNAAEGDWPVKPNPPFIPGHEGVGFVSAVGAGVKHVKEGDRVGVPWLYTACGHCRHCLGGWETLCESQLNTGYSVNGGFADYVVADPNYVGHLPKNVDFLDIAPVLCAGVTVYKGLKVTDTKPGDWVVISGIGGLGHMAVQYAKAMGMNVAAVDIDDEKLALARKLGATVTVNAATEPDPAAAIRKQTDGGAQGVLVTAVGRKAFEQAIGMVARGGTVALNGLPPGDFPLDIFGMVLNGITVRGSIVGTRLDLQESLDFAGDGKVKATVHKAKLEDINNIFGQMHKGQIEGRMVLDMAG | kcat/Km | 330
